The compounds listed here are annotated with their EC50.
- Test system: hMPV A2 TN/94-49
- experiment: HMPV antiviral assay Method 2 (LLC-MK2 cells with CP-100-356, ATP-Lite)
- Format: cell-based
- experimental_setup: hMPV A2 TN/94-49, LLC-MK2 cells, 4 μM CP-100-356, Method 2
- Experimental: In vitro HMPV antiviral activity was evaluated using the clinical isolate A2 strain TN 94-49 (obtained from Dr. John Williams, Vanderbilt University, Tennessee) and LLC-MK2 cells (Millipore Sigma CB_85062804), an immortalized kidney epithelial cell line from Macaca mulatta. […] The test compounds were assessed in duplicate at a top concentration of 200 nM followed by 2.5-fold serial dilutions to give a total of 10 concentration points. […]

Consider the reported EC50 for these compounds:
compound	EC50
COc1cc(C(=O)NC[C@@](O)(c2cncnc2)c2cc3c(c(-c4cc(Cl)c(F)cc4F)n2)OC[C@]3(C)C(N)=O)cc2cn(C3CC3)nc12 [Example 479]	< 200 nM
C[C@]1(C(N)=O)COc2c1cc([C@@](O)(CNC(=O)c1ccc3nc(Cc4ccccc4)oc3c1)c1ccccc1)nc2-c1cc(Cl)c(F)cc1F [Example 230]	> 200 nM
COc1cc(C(=O)NC[C@@](O)(c2cccc(F)c2)c2cc3c(c(-c4cc(Cl)c(F)cc4F)n2)OC[C@]3(C)C(N)=O)cc2cn(C3CC3)nc12 [Example 132]	< 200 nM
CCc1cc(-c2nc([C@@](O)(CNC(=O)c3cc(OC)c4nn(C5CC5)cc4c3)C3CC3)cc3c2OC[C@]3(C)C(N)=O)ccc1F [Example 71]	> 200 nM
C[C@]1(C(N)=O)COc2c1cc([C@@](O)(CNC(=O)c1cc(OC3CC3)n3nc(C4CC4)cc3c1)c1cccc(F)c1)nc2-c1cccc(Cl)c1Cl [Example 335]	< 200 nM

Look up EC50: Cc1cnc2c(OC(F)F)cc(C(=O)NC[C@@](O)(c3ccccc3)c3cc4c(c(-c5cc(Cl)c(F)cc5F)n3)OC[C@]4(C)C(N)=O)cc2c1 [Example 183] < 200 nM

Same question for COc1cc(C(=O)NC[C@](O)(c2cc3c(c(-c4cc(Cl)c(F)cc4F)n2)OC[C@]3(C)C(N)=O)c2cccs2)cc2cn(C3CC3)nc12 [Example 474] please. < 200 nM

// next record COc1cc(C(=O)NC[C@](O)(c2cc3c(c(-c4cc(Cl)c(F)cc4F)n2)OC[C@]3(C)C(N)=O)c2nccn2C)cc2cn(C3CC3)nc12 [Example 464] > 200 nM

Next entry: COc1cc(C(=O)NC[C@@](O)(c2cccc(F)c2)c2cc3c(c(-c4cccc(Cl)c4Cl)n2)OC[C@]3(C)C(N)=O)cc2cc(Cl)cnc12 [Example 333] < 200 nM

Also COc1cc(C(=O)NC[C@@](O)(c2ccccc2)c2cc3c(c(-c4ccc(F)c(Cl)c4Cl)n2)OC[C@]3(C)C(N)=O)cc2cn(C(F)F)nc12 [Example 258] , if possible. < 200 nM

Then COc1cc(C(=O)NC[C@@](O)(c2ccccc2)c2cc3c(c(-c4cc(Cl)c(F)cc4F)n2)OC[C@]3(C)C(N)=O)cc2cc(Cl)c(F)nc12 [Example 342] ? > 200 nM
